Where these numbers come from: PubChem BioAssay (NCATS)

- target: Cytochrome P450 2C19 (Homo sapiens) (UniProt P33261)
- Sequence (P33261 whole entry, looked up): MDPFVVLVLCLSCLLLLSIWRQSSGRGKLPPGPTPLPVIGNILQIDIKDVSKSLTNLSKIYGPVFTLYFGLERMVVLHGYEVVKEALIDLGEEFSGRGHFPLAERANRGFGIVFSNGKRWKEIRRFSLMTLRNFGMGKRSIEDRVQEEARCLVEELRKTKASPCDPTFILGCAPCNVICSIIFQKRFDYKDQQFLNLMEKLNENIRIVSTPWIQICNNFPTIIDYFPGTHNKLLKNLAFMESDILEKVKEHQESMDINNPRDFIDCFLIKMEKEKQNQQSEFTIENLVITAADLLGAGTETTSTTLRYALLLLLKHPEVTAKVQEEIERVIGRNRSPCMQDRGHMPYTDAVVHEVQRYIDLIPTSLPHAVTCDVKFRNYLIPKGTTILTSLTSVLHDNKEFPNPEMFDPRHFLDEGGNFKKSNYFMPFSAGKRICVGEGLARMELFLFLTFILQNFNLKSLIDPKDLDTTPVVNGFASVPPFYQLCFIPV
- method: qHTS Assay for Inhibitors and Substrates of Cytochrome P450 2C19 (AID 899); further: nearly all actives have a fitted effect of over 60% in size
- measurementContext: recombinant CYP2C19, luciferin-H EGE luminescence; series mostly up to 11.4 µM
Records with an inconclusive call do not appear. The source made the active and inactive calls. The call rests on the fitted dose curve; in most records, active means well fitted inhibition curve with a large enough effect; inconclusive means small, poorly fitted or top-dose-only effect; inactive means no such curve, though single readings can be large or run the other way.
Select the matching outcome among active, inactive

>>> assignedclass("CC(=O)c1ccc(C2C=CC(O)C(CO)O2)cc1 (stereo not drawn)")
"inactive"
>>> assignedclass("CCOC(=O)OCC1C=C[C@H](c2cc(-c3ccccc3)ccc2O)C(c2ccc(C(C)=O)cc2)O1 (stereo partly drawn)")
"active"
>>> assignedclass("C/C=C/C1Oc2ccc(OC)cc2N2C(=O)C(C)C(OCOC)C12 (stereo not drawn)")
"inactive"
>>> assignedclass("C=CCC1C=CC(OC(=O)OCC)C(COC(=O)OCC)O1 (stereo not drawn)")
"active"
>>> assignedclass("CC(C)CCN1CCc2nc(-c3ccccc3)c3c(c2C1)COC(C)C3 (stereo not drawn)")
"inactive"

input: Recorded call for CCC(=O)CC(NC(=O)OC)c1ccc(F)cc1 (stereo not drawn) ?
output: inactive

input: Look up the recorded call for COc1ccc(-c2nc3c(c4c2CC(C)OC4)CN(CCC(C)C)CC3)cc1 (stereo not drawn) in this test.
output: inactive

input: Each compound tested received a call. Report the one for CCC(=O)[C@]12O[C@@]3(C4C(=O)OCCC41)N(Cc1ccccc1)C(C)=C(C(=O)OC)C(c1ccccc1)N3C2=O (stereo partly drawn) .
output: inactive

input: For this compound, state the assay outcome: C=CCC1C=CC(Oc2ccc(OC)cc2)C(CO)O1 (stereo not drawn)
output: inactive

input: Please state the recorded outcome for this compound: COC1(C#CC2C=CC(OC(C)=O)C(COC(C)=O)O2)CCCCC1 (stereo not drawn)
output: inactive

----------
Listed here are molecules together with their documented max response.
- target: Peroxisome proliferator-activated receptor alpha (Homo sapiens)
- method: qHTS assay for small molecule agonists of the peroxisome proliferator-activated receptor alpha (PPARalpha) signaling pathway (AID 651778); further: % of control where 0% means no effect
- measurementContext: PathHunter PPARalpha complementation, chemiluminescence, 6 h; stronger effect = higher value
Please give a number only; it is taken to be in %.

input: Quick one: max response of "CCCCCCCCCCCC[N+](C)(C)[O-]" ?
output: 0.14

input: Please give the measured max response for this molecule: "C=CCOc1nc(OCC=C)nc(OCC=C)n1"
output: -2.18

----------
- Tested on: CP256
- method: qHTS profiling for inhibitors of Plasmodium falciparum proliferation (AID 504749); further: nearly all actives have a fitted effect of over 60% in size
- measurementContext: P. falciparum in erythrocytes, SYBR Green DNA, 72 h; series mostly up to 28.7 µM
Records with an inconclusive call do not appear. Calls of active or inactive are those of the source. The call rests on the fitted dose curve; in most records, active means well fitted inhibition curve with a large enough effect; inconclusive means small, poorly fitted or top-dose-only effect; inactive means flat fitted curve, though single readings scatter. Numbered stars: 1 amine (or outer) side, 2 acyl side, 3 side chain; on linkers, the order of the positions; unused ones are H or OH. Bridge positions count the residues as written; N and C are the ends. Square brackets hold non-standard residues; d marks the D form. Peptide text beside a SMILES is read from it. * marks the point of attachment. ξ: configuration not given here. ΔAla(Z-3-ureido) = NC(=O)N/C=C(\N)C(=O)O; X1 = NC1=NCCC(C(N[*:1])C(=O)[*:2])N1; ξβ3hOrn = NCCCC(N)CC(=O)*; Orn = NCCC[CH](N)C(=O)O; Dap = NC[CH](N)C(=O)O
Hi there, use one of these labels in your reply, thanks! active, inactive

>>> assignedclass("CC(C)CC1NC(=O)C(CCCN)NC(=O)C(C(C)C)NC(=O)C2CCCN2C(=O)C(Cc2ccccc2)NC(=O)C(CC(C)C)NC(=O)C(CCCN)NC(=O)C(C(C)C)NC(=O)C2CCCN2C(=O)C(Cc2ccccc2)NC1=O (stereo not given) (cyclo(FPV[Orn]LFPV[Orn]L); configuration not given here)")
"active"
>>> assignedclass("CCC(Oc1ccccc1)C(=O)NC1C(=O)N2C1SC(C)(C)C2C(=O)O (stereo not given)")
"inactive"
>>> assignedclass("C=CC1=C(C(=O)O)N2C(=O)[C@@H](NC(=O)C(N=O)c3csc(N)n3)[C@H]2SC1 (stereo not given in full)")
"inactive"
>>> assignedclass("CCC1NC(=O)C(NC(=O)c2ncccc2O)C(C)OC(=O)C(c2ccccc2)NC(=O)C2CC(=O)CCN2C(=O)C(Cc2ccccc2)N(C)C(=O)C2CCCN2C1=O (stereo not given)")
"inactive"
>>> assignedclass("CCC(C)C1NC(=O)C(Cc2ccc(O)cc2)NC(=O)C(N)CSSCC(C(=O)N2CCCC2C(=O)NC(CC(C)C)C(=O)NCC(N)=O)NC(=O)C(CC(N)=O)NC(=O)C(CCC(N)=O)NC1=O (stereo not given)")
"inactive"

input: Dear all, I need the recorded test outcome for NCCCC(N)CC(=O)NCC1NC(=O)C(CO)NC(=O)C(N)CNC(=O)C(C2CCN=C(N)N2)NC(=O)/C(=C/NC(N)=O)NC1=O (stereo not drawn) (H-[Dap]S[Dap](ξβ3hOrn)[ΔAla(Z-3-ureido)][X1]; lactam 1-C; configuration not given here) , thank you.
output: inactive

input: Name the outcome recorded for CC(N)C(=O)NCC(=O)NC1CSSCC(C(=O)O)NC(=O)C(CO)NC(=O)C(C(C)O)NC(=O)C(Cc2ccccc2)NC(=O)C(C(C)O)NC(=O)C(CCCCN)NC(=O)C(Cc2c[nH]c3ccccc23)NC(=O)C(Cc2ccccc2)NC(=O)C(Cc2ccccc2)NC(=O)C(CC(N)=O)NC(=O)C(CCCCN)NC1=O (stereo not given) in the assay.
output: inactive

input: Which outcome did this test record for the molecule CC(C)C(NC(=O)C(CC(=O)O)NC(=O)C(CCCCN)NC(=O)C(N)CCCN=C(N)N)C(=O)NC(Cc1ccc(O)cc1)C(=O)O (stereo not given) (H-RKDVY-OH; configuration not given here) ?
output: inactive

input: Per the assay record, what outcome was assigned to CC(C)CC(NC(=O)C(COC(C)(C)C)NC(=O)C(Cc1ccc(O)cc1)NC(=O)C(CO)NC(=O)C(Cc1c[nH]c2ccccc12)NC(=O)C(Cc1cnc[nH]1)NC(=O)C1CCC(=O)N1)C(=O)NC(CCCN=C(N)N)C(=O)N1CCCC1C(=O)NNC(N)=O (stereo not given) ?
output: inactive

input: Look up the recorded call for CC(=O)OCC1=C(C(=O)O)N2C(=O)C(NC(=O)Cc3ccccc3)C2SC1 (stereo not given) in this test.
output: inactive
